# SYSTEM NAME: Adenosine receptor A1 (Homo sapiens, UniProt P30542)
# Sequence (P30542 whole entry): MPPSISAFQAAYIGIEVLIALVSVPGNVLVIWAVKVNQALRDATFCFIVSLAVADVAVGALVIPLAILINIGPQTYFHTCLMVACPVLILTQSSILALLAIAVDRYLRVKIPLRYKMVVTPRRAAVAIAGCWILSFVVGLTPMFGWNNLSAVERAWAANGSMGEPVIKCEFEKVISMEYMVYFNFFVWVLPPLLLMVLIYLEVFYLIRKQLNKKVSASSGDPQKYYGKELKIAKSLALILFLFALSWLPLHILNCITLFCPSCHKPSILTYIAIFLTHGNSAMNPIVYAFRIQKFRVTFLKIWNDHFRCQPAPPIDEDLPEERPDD
# ASSAY: Displacement of [3H]DPCPX from human adenosine A1 receptor expressed in CHO cells after 90 mins by filtration binding assay
# Format: cell-based
Rule: Ki below 300 nM gives rule met. Equal to or above 300 nM gives rule not met.

Use the examples below as a reference point.
>>> print(df.to_string())
                                smiles_data  answer_label
0       c1coc(-c2nc3[nH]ccc3cc2-c2ccncn2)c1      rule met
1  O=c1[nH][nH]c2nc(-c3ccco3)c(-c3ccncn3)cc12      rule met
2       c1coc(-c2nc3[nH]ncc3cc2-c2ccncn2)c1  rule not met
3  O=c1[nH]c2cc(-c3ccncn3)c(-c3ccco3)nc2[nH]1  rule not met

Please look at the following compound next.
I'd appreciate it if you could check whether `c1coc(-c2nc3[nH]cnc3cc2-c2ccncn2)c1` has Ki smaller than 300 nM.
rule not met

* * *

Form field: AUC(0-inf) (one value per entry).
# ASSAY: AUC (0 to infinity) in rat at 1 mg/kg, iv
# Format: ADME, organism-based
# Design: time infinity, dose 1 mg/kg, route intravenous
# CONDITIONS: plasma
Please reply with the bare figure in ng·h/mL and do not write the unit itself.

Record excerpt, results attached:
In [3]: df
Out[3]:
                                smiles_data  value_reported
0    Nc1n[nH]c2nc(-c3ccco3)c(-c3ccncn3)cc12             164
1       c1coc(-c2nc3[nH]ncc3cc2-c2ccncn2)c1             736
2  O=c1[nH]c(=O)c2cc(-c3ccncn3)c(-c3ccco3)nc2[nH]1             880
3  O=c1[nH]c2cc(-c3ccncn3)c(-c3ccco3)nc2[nH]1             350

For record `O=c1[nH][nH]c2nc(-c3ccco3)c(-c3ccncn3)cc12` the listed AUC(0-inf) is 504

* * *

# SYSTEM NAME: Adenosine receptor A2a (Homo sapiens, UniProt P29274)
# Sequence (P29274 whole entry): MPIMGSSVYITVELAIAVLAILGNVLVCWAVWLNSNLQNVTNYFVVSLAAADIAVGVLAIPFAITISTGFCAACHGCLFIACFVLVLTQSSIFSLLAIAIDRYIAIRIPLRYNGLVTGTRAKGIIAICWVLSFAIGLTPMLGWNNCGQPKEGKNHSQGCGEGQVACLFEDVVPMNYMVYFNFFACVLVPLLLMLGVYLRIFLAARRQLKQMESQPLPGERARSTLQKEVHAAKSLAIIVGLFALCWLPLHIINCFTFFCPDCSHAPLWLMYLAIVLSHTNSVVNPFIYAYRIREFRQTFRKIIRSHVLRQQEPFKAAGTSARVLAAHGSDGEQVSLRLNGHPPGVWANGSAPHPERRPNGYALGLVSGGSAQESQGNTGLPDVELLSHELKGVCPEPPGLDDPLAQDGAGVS
# ASSAY: Displacement of [3H]ZM241385 from human adenosine A2A receptor expressed in human HeLa cells after 1 hr by scintillation proximity assay
# Format: cell-based
Form field: Ki (one value per entry).

                                smiles_data  value_reported
0  Cn1c(=O)[nH]c2nc(-c3ccco3)c(-c3ccncn3)cc21         2130 nM

Could you now look at the following compound, please?
For record `O=c1[nH]c2cc(-c3ccncn3)c(-c3ccco3)nc2[nH]1` the listed Ki is 769 nM

* * *

# ASSAY: Volume of distribution at steady state in rat at 1 mg/kg, iv
# Assay type: ADME, organism-based
# Design: dose 1 mg/kg, route intravenous
# CONDITIONS: in vivo, read-out: Vdss
ASSAY ENDPOINT: Vd
Write the quantity with the unit trailing the number.

In [3]: df
Out[3]:
                                smiles_data  assay_endpoint  value_reported
0  O=c1[nH][nH]c2nc(-c3ccco3)c(-c3ccncn3)cc12              Vd        0.6 L/kg
1  O=c1[nH]c(=O)c2cc(-c3ccncn3)c(-c3ccco3)nc2[nH]1              Vd       0.75 L/kg

For record `c1coc(-c2nc3[nH]ncc3cc2-c2ccncn2)c1` the listed Vd is 0.8 L/kg

For record `O=c1[nH]c2cc(-c3ccncn3)c(-c3ccco3)nc2[nH]1` the listed Vd is 1 L/kg

For record `Nc1n[nH]c2nc(-c3ccco3)c(-c3ccncn3)cc12` the listed Vd is 3.7 L/kg

The measured values listed here are drawn from ChEMBL document CHEMBL1154955.
